Tested on: MAXF 857
Experiment: Clonogenic assay, MAXF 857
Format: cell-based
Conditions: Homo sapiens, Breast, Invasive ductal carcinoma, soft agar, read-out: IC50 (colony formation)
MEASURED_PARAMETER: pIC50
pIC50 field: float, defined as -log10 of concentration (mol/L).

Prompt: Specify the recorded pIC50 for COc1cccc(-c2ccccc2[C@H]2Cc3nc(N)nc(C)c3C(=O)N2)n1 , system: MAXF 857.
Response: 7.92

---

Tested on: LXFA 289
Experiment: Clonogenic assay, LXFA 289
Assay type: cell-based
Conditions: Homo sapiens, Lung, non-small cell, Adenocarcinoma, soft agar, read-out: IC50 (colony formation)
MEASURED_PARAMETER: IC50
Answer as a quantity: numeral, then unit.

Prompt: Given the molecule COc1cccc(-c2ccccc2[C@H]2Cc3nc(N)nc(C)c3C(=O)N2)n1 , write its reported IC50.
Response: 639 nM

---

Test system: OVXF 899
Test: Clonogenic assay, OVXF 899
Assay type: cell-based
Conditions: Homo sapiens, Ovary, Pap. serous adenocarcinoma, soft agar, read-out: IC50 (colony formation)
pIC50: −log10 of the molar value.
MEASURED_PARAMETER: pIC50

Prompt: Given the compound COc1cccc(-c2ccccc2[C@H]2Cc3nc(N)nc(C)c3C(=O)N2)n1 , write its reported pIC50.
Response: < 7.00

---

Test system: SXF 1410
Test: Clonogenic assay, SXF 1410
Format: cell-based
Settings: Homo sapiens, Sarcoma, Fibroblastic osteosarcoma, soft agar, read-out: IC50 (colony formation)
pIC50: −log10 of the molar value.
MEASURED_PARAMETER: pIC50

Prompt: Given the molecule COc1cccc(-c2ccccc2[C@H]2Cc3nc(N)nc(C)c3C(=O)N2)n1 , write its reported pIC50.
Response: < 6.00

---

Test system: MAXF 401
Assay: Clonogenic assay, MAXF 401
Assay type: cell-based
Conditions: Homo sapiens, MAXF401, Breast, Pap. adenocarcinoma, soft agar, read-out: IC50 (colony formation)
Experimental: The anticancer activity of (R)-2-amino-7-[2-(6-methoxy-pyridin-2-yl)-phenyl]-4-methyl-7,8-dihydro-6H-pyrido[4,3-d]pyrimidin-5-one is evaluated in 30 human tumor xenografts in vitro using a clonogenic assay. In this assay, human cells derived from cancer patients are evaluated for the capacity of (R)-2-amino-7-[2-(6-methoxy-pyridin-2-yl)-phenyl]-4-methyl-7,8-dihydro-6H-pyrido[4,3-d]pyrimidin-5-one to inhibit the formation of 3 dimensional colonies. […]
MEASURED_PARAMETER: IC50 (nM)
Field: numeric (nM). Do not append units.

Prompt: Specify the recorded IC50 for COc1cccc(-c2ccccc2[C@H]2Cc3nc(N)nc(C)c3C(=O)N2)n1 , system: MAXF 401.
Response: 15

---

System: LYXF U937
Assay: Clonogenic assay, LYXF U937
Assay type: cell-based
Details: Homo sapiens, U-937, Histiocytic lymphoma, soft agar, read-out: IC50 (colony formation)
MEASURED_PARAMETER: IC50 (nM)
Field: numeric (nM). Do not append units.

Prompt: Specify the recorded IC50 for COc1cccc(-c2ccccc2[C@H]2Cc3nc(N)nc(C)c3C(=O)N2)n1 , system: LYXF U937.
Response: 28
